Field: Emax. Provide a value for each of the molecules that follow.
target: HDAC6 (Homo sapiens, UniProt Q9UBN7); construct: made in house; host or cells: E. coli BL21 (DE3), pET-28a plasmid; test: HDAC6 enzyme inhibition, fluorescence assay; type: biochemical; details: top of fitted dose-effect curve of inhibition rate (GraphPad Prism)
Sequence (Q9UBN7 whole entry, species assumed): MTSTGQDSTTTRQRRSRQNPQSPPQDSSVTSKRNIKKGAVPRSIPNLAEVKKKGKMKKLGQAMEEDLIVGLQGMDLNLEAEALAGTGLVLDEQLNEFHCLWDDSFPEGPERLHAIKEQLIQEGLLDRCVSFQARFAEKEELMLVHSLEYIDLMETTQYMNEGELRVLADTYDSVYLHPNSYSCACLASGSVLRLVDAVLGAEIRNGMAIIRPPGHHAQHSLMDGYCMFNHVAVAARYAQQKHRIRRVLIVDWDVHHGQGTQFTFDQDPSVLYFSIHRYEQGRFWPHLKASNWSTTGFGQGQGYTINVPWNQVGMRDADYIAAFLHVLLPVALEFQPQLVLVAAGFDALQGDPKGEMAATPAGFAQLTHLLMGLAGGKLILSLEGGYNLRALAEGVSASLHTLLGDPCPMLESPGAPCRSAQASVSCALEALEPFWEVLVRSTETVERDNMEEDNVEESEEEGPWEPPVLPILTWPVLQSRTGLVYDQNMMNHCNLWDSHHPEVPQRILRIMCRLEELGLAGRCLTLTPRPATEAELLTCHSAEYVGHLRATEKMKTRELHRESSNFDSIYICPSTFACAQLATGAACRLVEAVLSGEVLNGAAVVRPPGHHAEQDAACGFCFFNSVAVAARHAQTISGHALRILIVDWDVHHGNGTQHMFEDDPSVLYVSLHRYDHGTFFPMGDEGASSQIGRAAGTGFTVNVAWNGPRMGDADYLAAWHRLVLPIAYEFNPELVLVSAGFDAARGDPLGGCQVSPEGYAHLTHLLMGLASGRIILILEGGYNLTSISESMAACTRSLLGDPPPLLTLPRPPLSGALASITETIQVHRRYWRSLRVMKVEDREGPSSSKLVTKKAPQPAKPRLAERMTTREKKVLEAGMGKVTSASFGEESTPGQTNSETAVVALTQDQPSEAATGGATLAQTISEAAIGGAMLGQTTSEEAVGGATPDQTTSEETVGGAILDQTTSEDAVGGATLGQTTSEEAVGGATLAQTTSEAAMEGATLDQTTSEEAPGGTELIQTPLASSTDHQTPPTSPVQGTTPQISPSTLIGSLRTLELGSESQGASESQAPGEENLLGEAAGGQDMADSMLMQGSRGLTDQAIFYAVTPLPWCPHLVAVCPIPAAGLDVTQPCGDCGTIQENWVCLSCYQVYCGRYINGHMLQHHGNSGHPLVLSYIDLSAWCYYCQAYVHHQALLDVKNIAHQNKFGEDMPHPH
Give just the numeric value; % need not be written.

Indicate the recorded Emax value for this molecule: O=C(C(=O)N1CC(O)SCC1C(=O)OCCC1CCCCC1C(=O)OCc1ccccn1)c1cc2ccccc2[nH]1 (stereo not shown)
96

Indicate the recorded Emax value for this molecule: O=C(OCc1ccccn1)C1CCC(COC(=O)C2C[Se]C(O)CN2S(=O)(=O)c2ccccc2)CC1 (stereo not shown)
99

Indicate the recorded Emax value for this molecule: COc1ccc(COC(=O)c2ccc(CCOC(=O)C3C[Se]C(O)CN3C(=O)C(=O)c3ccncc3)nc2)cc1 (stereo not shown)
101

Indicate the recorded Emax value for this molecule: O=C(C(=O)N1CC(O)OCC1C(=O)OCCC1CCCCC1C(=O)OCc1ccc(Cl)cc1)c1ccccn1 (stereo not shown)
102
